- Tested on: 3D7
- experiment-notes: qHTS profiling for inhibitors of Plasmodium falciparum proliferation (AID 504749); also: nearly all actives have a fitted effect of over 60% in size
- condition-parameters: P. falciparum in erythrocytes, SYBR Green DNA, 72 h; series mostly up to 28.7 µM
Inconclusive results are not listed. The source made the active and inactive calls. Calls follow the shape of the dose curve; as a rule, active = well fitted inhibition curve with a large enough effect; inconclusive = small, poorly fitted or top-dose-only effect; inactive = flat fitted curve, though single readings scatter.
Labels: yes (1) for active, no (0) for inactive

| compound | assayed-system | assigned-class |
| --- | --- | --- |
| N[C@H](COP(=O)(O)O)C(=O)O | 3D7 | no (0) |
| O=C(O)[C@@H](S)[C@H](S)C(=O)O | 3D7 | yes (1) |
| CC(C)(C)c1ccc(CN2CCN([C@H](c3ccccc3)c3ccc(Cl)cc3)CC2)cc1 | 3D7 | yes (1) |
| COc1cccc2c1C(=O)c1c(O)c3c(c(O)c1C2=O)C[C@](O)(C(=O)CO)C[C@@H]3O[C@H]1C[C@H](N)[C@@H](O)[C@H](C)O1 | 3D7 | no (0) |
| C[C@H]1C[C@@H]2[C@H]3CCC4=CC(=O)C=C[C@@]4(C)[C@@]3(Cl)[C@@H](O)C[C@]2(C)[C@]1(OC(=O)c1ccco1)C(=O)CCl | 3D7 | yes (1) |
| Cc1c(C(=O)O)c(O)cc2c1C(=O)c1c(O)c([C@H]3O[C@H](CO)[C@@H](O)[C@H](O)[C@H]3O)c(O)c(O)c1C2=O | 3D7 | no (0) |
| CN(C)[C@H]1C(=O)C(C(=O)NCN2CCCC2)=C(O)[C@]2(O)C(=O)C3=C(O)c4c(O)cccc4[C@](C)(O)[C@H]3C[C@H]12 | 3D7 | no (0) |
| C[C@H](CCC(=O)O)[C@H]1CC[C@@H]2[C@H]3[C@@H](C[C@@H](O)[C@]21C)[C@]1(C)CC[C@H](O)C[C@@H]1C[C@@H]3O | 3D7 | no (0) |
| C[N+]1(C)[C@@H]2CC(OC(=O)[C@@H](CO)c3ccccc3)C[C@@H]1[C@H]1O[C@H]12 (some centres undefined) | 3D7 | no (0) |

====

- assayed-system: Glucocorticoid receptor (Homo sapiens)
- experiment-notes: GR-EFC Redistribution (AID 451); also: potency is read from the fitted curve at half-maximal effect
- condition-parameters: CHO-K1 GR-EFC translocation, beta-gal luminescence, 2 h
Calls of active or inactive are those of the source. Calls follow the shape of the full dose curve.
Quick list: Potency per entry.

| item-smiles | Potency |
| --- | --- |
| Cc1cc(CN2CCCCC2)c(O)c(CN2CCCCC2)c1 | > 9.22 µM (inactive) |
| Cc1[nH]c(N)nc(=S)c1CCC(=O)O | > 9.22 µM (inactive) |
| C[C@@]1(C(=O)O)CCC[C@@H]1C(=O)O | > 9.22 µM (inactive) |
| CS[C@]12C(=O)C[C@]3(C)[C@@H](CC[C@@]3(O)C(=O)CO)[C@@H]1CCC1=CC(=O)CC[C@]12C | > 9.22 µM (inactive) |
| C[C@@]12C=CC(=O)C=C1CC[C@@H]1C2=CC[C@]2(C)[C@@H]1CC[C@H]2C(=O)CN1CCN(c2cc(N3CCCC3)nc(N3CCCC3)n2)CC1 | > 46 µM (inactive) |
| NC(=O)c1ncn([C@@H]2O[C@@H](CO)[C@@H](O)[C@H]2O)n1 | > 46 µM (inactive) |
| O[C@H](C[C@@H]1CCCCN1)c1ccc2c(c1)oc1ccccc12 | > 9.22 µM (inactive) |
| COc1ccc(Cc2ccccc2C(=O)O)c2ccccc12 | > 9.22 µM (inactive) |
| O=C1/C(=C/c2ccccc2)[C@@H](NC2CCCCC2)c2ccccc21 | > 9.22 µM (inactive) |
| COC(=O)[C@](C)(N)Cc1ccc(O)cc1 | > 46 µM (inactive) |
| CCC(=O)OCN1C(=O)C=CC1=O | > 9.22 µM (inactive) |
| OCCn1cnc2c(SCc3ccccc3)ncnc21 | > 9.22 µM (inactive) |
| Nc1ccc(CCNc2ncnc3c2ncn3[C@@H]2O[C@@H](CO)[C@H](O)[C@@H]2O)cc1 | > 46 µM (inactive) |
| Clc1ccc(-c2noc(CN3CCCCC3)n2)cc1 | > 9.22 µM (inactive) |
| Nc1nc2c(nc(Br)n2[C@@H]2O[C@H]3COP(=O)(O)O[C@@H]3[C@H]2O)c(=O)[nH]1 | > 46 µM (inactive) |
| O=C(O)CCSC1=NCCN1 | > 9.22 µM (inactive) |
| Cc1c(Cl)cc(C(C)(C)C)c(O)c1Cc1c(C)c(Cl)cc(C(C)(C)C)c1O | > 9.22 µM (inactive) |
| COc1cc2nncc(SCc3ccc(Cl)c(Cl)c3)c2cc1OC | > 9.22 µM (inactive) |
| COc1cc(N=C(N)N=C(N)N)c2ncccc2c1 | > 9.22 µM (inactive) |
| NC(=O)N[C@H](CC(=O)O)C(=O)O | > 9.22 µM (inactive) |
| COc1ccc(C(=O)[C@H](Br)[C@H](Br)C(=O)O)cc1 | > 9.22 µM (inactive) |
| C/C(=N/NC(=O)c1ccncc1)c1ccccc1Cl | > 9.22 µM (inactive) |
| CC(C)c1cc(C(F)(F)F)nc(NNc2nc(C(C)C)cc(C(F)(F)F)n2)n1 | > 9.22 µM (inactive) |
